Biological target: human H3 receptor (Homo sapiens)
Construct: expressed in transfected cells
Sequence (Q9Y5N1 whole entry): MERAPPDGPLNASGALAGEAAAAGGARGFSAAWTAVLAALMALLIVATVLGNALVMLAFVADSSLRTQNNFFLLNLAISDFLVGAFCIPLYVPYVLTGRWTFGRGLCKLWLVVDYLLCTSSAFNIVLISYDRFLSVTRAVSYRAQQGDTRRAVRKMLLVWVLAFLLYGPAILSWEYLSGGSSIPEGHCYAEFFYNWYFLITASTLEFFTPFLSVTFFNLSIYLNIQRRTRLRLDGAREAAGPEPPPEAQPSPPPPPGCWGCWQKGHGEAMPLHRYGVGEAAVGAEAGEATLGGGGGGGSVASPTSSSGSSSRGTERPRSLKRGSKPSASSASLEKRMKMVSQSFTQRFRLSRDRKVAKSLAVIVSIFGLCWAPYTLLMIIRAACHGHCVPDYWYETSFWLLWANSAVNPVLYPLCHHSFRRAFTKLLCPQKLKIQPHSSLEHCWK
Assay: In vitro H3 binding assay (3H-N-α-methyl-histamine competition binding)
Details: membranes of CHO-K1 cells expressing human H3 receptor; 2 nM 3H-NαMH; read-out: hH3 binding IC50
pIC50: −log10 of the molar value.
PARAMETER MEASURED: pIC50

{"COMPOUND": "O=C(NCC1CCN(C2CCC2)CC1)c1ccc2c(c1)CCN(C1CCC1)CC2 [Example 11]", "STUDY TARGET": "human H3 receptor (Homo sapiens)", "pIC50": 7.52}

P: O=C(NCc1ccccc1Br)c1ccc2c(c1)CCN(C1CCC1)CC2 [Example 54]
Q: Cn1ccc2c(CNC(=O)c3ccc4c(c3)CCN(C3CCC3)CC4)cccc21 [Example 77]
Exam item: Would you kindly point out which of P and Q has the smaller pIC50 figure? Please indicate the selected item by its label.
Marked response: P

a: Cn1nccc1NC(=O)Cc1ccc2c(c1)CCN(C1CCC1)CC2 [Example 221]
b: O=C(NCc1ccc2c(c1)CCN(C1CCC1)CC2)c1cccnc1 [Example 120]
Exam item: Would you kindly point out which of a and b has the smaller pIC50 figure? Please indicate the selected item by its label.
Marked response: a

A: CC(C)(O)CC(=O)NCc1ccc2c(c1)CCN(C1CCC1)CC2 [Example 216]
B: O=C(NCC1CCCCC1)c1ccc2c(c1)CCN(C1CCC1)CC2 [Example 34]
Exam item: Hi there! Just curious which has the higher pIC50 between A and B . Please indicate the selected item by its label.
Marked response: B
(B: 7.59, A: 7.39)

a: Cc1nn(C)c(C)c1CNC(=O)c1ccc2c(c1)CCN(C1CCC1)CC2 [Example 96]
b: O=C(NCc1nccs1)c1ccc2c(c1)CCN(C1CCC1)CC2 [Example 86]
Exam item: Hi there! Just curious which has the higher pIC50 between a and b . Please indicate the selected item by its label.
Marked response: b
(b: 8.52, a: 7.74)
